measured.on: hNaV1.7 (Homo sapiens (Human))
Sequence (Q15858 whole entry, looked up): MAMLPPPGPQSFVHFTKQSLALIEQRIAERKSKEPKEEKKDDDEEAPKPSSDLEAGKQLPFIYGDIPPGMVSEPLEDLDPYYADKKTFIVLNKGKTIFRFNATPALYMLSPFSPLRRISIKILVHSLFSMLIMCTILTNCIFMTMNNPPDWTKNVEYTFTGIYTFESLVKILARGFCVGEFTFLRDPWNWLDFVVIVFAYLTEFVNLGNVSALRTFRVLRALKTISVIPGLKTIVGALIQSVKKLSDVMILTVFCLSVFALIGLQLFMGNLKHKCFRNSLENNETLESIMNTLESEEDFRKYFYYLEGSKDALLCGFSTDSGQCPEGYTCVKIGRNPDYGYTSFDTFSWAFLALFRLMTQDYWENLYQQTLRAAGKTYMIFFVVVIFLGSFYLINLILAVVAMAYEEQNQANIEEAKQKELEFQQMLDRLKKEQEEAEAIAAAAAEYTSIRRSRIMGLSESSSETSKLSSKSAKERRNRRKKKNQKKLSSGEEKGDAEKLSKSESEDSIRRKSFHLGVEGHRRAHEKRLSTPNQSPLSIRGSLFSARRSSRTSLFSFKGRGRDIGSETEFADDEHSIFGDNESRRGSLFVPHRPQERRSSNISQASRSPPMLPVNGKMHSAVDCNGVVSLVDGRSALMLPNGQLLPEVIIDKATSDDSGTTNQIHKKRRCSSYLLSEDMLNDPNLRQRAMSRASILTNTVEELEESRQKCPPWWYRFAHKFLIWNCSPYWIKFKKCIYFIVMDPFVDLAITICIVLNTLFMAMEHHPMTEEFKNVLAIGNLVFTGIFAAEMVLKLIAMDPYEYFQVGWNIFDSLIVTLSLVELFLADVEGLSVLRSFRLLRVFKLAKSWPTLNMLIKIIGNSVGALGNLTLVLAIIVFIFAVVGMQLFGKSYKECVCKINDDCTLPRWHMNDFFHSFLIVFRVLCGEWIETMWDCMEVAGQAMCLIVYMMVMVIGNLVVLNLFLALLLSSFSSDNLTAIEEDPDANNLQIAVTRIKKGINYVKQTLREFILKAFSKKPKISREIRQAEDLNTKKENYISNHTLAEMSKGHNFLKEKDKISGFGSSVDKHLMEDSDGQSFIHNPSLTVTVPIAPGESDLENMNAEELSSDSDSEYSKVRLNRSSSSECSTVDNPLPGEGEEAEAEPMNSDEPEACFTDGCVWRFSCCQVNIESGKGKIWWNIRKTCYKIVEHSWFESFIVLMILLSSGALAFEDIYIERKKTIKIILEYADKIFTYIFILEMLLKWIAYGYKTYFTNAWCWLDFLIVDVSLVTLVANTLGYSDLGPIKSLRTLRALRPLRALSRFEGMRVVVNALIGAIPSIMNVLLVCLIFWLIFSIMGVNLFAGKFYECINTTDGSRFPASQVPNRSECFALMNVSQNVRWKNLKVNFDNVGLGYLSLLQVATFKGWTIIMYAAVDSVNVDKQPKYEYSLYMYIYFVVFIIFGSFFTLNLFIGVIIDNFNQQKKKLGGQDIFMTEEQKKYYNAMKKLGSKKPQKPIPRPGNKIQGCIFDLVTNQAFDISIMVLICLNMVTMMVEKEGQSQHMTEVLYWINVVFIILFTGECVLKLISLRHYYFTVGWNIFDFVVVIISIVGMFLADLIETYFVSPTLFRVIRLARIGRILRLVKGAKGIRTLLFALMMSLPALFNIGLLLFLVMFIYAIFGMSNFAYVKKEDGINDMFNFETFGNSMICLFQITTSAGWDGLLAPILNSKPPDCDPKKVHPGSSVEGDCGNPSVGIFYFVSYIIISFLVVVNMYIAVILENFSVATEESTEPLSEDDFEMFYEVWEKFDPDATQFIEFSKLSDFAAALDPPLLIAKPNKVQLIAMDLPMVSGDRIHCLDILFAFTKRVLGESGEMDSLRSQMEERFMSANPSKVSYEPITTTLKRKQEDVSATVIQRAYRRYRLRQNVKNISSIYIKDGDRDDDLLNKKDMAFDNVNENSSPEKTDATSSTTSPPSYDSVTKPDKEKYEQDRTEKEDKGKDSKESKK
Sequence (Q07699 whole entry partner, looked up): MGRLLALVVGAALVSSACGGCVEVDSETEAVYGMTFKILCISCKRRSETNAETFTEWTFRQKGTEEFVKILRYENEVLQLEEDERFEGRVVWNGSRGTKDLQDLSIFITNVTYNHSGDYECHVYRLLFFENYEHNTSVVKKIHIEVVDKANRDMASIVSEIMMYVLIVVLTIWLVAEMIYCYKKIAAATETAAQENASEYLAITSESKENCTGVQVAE
assay.method.text: Competitive binding of tritiated compound to membranes from cells expressing hNav1.7 and the β1 subunit
test.conditions: 100 pM [3H]compound, 18 h, room temperature; read-out: NaV1.7 395 Membrane Binding IC50
readout.label: IC50 (nM)
Answers are plain numbers, in nM.

molecule	IC50, nM
CN(C)S(=O)(=O)NC(=O)c1cc(Cl)c(Oc2cnc(OCC(F)(F)C(F)F)c(Cl)c2)cc1F	47.8
CC(C)COc1ncc(Oc2cc(F)c(C(=O)NS(=O)(=O)Nc3ccc(C#N)cc3)cc2Cl)cc1Cl	2940
O=C(NS(=O)(=O)N1CCC1)c1cc(Cl)c(COc2ccc(OC(F)(F)F)c(Cl)c2)cc1F	17
Cc1cc(Oc2cc(F)c(C(=O)NS(=O)(=O)N(C)C)cc2Cl)cc(C)c1C#N	11000
CN(C)S(=O)(=O)NC(=O)c1cc(Cl)c(COc2cnc(OCC(F)(F)C(F)F)c(Cl)c2)cc1F [Preparation 39]	216

Hey, can you go through the list below and give me IC50 for every item?
1. CC(C)COc1ncc(Oc2cc(F)c(C(=O)NS(=O)(=O)N3CCCCCC3)cc2Cl)cc1Cl
2. CC(C)COc1ncc(Oc2cc(F)c(C(=O)NS(=O)(=O)N3CCNCC3)cc2Cl)cc1Cl

Result:
1. 542
2. 856

Quick request: IC50 for each listed item, please.
1. NS(=O)(=O)NC(=O)c1cc(Cl)c(Oc2cccc3ccccc23)cc1F
2. O=C(NS(=O)(=O)N1CCC1)c1cc(Cl)c(COc2cnc(OCC(F)(F)C(F)F)c(Cl)c2)cc1F
3. O=C(NS(=O)(=O)N1CCC1)c1cc(C2CC2)c(COc2cc(Cl)cc(OC(F)(F)F)c2)cc1F
4. O=C(NS(=O)(=O)N1CCC1)c1cc(C2CC2)c(COc2cc(Cl)cc(Cl)c2)cc1F
5. CC(C)COc1ncc(Oc2cc(F)c(C(=O)NS(=O)(=O)N3CCc4ccccc43)cc2Cl)cc1Cl
6. CN(C)S(=O)(=O)NC(=O)c1cc(Cl)c(OCCc2ccccc2)cc1F

Result:
[23000, 68, 2, 0.3, 388, 1300]

For the 2 molecules below, give their IC50 values.
1. CC(C)Oc1ncc(Oc2cc(F)c(C(=O)NS(=O)(=O)N3CCC3)cc2C2(F)COC2)cc1Cl
2. CC(C)COc1ncc(Oc2cc(F)c(C(=O)NS(=O)(=O)c3cccnc3)cc2Cl)cc1Cl

Result:
44
703
